biological target: human Y4 receptor (human, UniProt P50391 1-375); assay: 125I-PP displacement
Sequence (P50391 whole entry): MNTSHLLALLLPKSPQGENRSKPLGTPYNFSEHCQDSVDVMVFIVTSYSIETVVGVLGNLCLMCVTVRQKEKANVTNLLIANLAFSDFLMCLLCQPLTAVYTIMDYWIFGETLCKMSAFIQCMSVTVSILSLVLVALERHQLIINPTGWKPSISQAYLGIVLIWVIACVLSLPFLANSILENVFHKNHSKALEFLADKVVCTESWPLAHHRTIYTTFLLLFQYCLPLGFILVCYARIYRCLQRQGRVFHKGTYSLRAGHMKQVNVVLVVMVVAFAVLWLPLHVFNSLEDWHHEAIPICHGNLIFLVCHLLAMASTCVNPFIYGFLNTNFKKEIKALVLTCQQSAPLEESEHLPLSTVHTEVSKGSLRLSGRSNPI
PARAMETER MEASURED: IC50

Ask: Give the value of IC50 reported for the following: HAPLEPSYPGDNATPEQMAKYAAELRRYINKLTRPRY [4058150]
Result: 0.113 nM

Ask: Give the value of IC50 reported for the following: AAPLEPTYPGDNATPEQMARYAAALRRYINKLTRPRY [4058068]
Result: 0.026 nM

Ask: Give the value of IC50 reported for the following: PAPLEPHYPGDNATPEEMAKYAAELRRYINKLTRPRY [4058079]
Result: 0.071 nM
